- TARGET_ENTITY: hemagglutinin (HA) of live influenza A/Solomon Islands/3/06 (H1N1) virus (influenza A virus A/Solomon …)
- ASSAY_EXPLANATION: cell-based or functional assay
PARAMETER_MEASURED: % Neutralization (%)
Report the figure in % without appending any unit label.

BINDER	% Neutralization, %
TCN-540 (5060_F05) (antibody, V domains shown) VH: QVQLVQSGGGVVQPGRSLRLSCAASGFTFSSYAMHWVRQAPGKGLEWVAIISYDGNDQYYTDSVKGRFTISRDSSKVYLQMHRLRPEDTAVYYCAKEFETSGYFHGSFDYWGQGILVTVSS VL: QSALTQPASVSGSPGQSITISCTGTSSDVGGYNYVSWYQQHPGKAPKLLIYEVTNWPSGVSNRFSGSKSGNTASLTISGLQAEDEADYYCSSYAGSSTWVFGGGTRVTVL	3

Sure, the documented % Neutralization for TCN-555 (5246_L16) (antibody, V domains shown) VH: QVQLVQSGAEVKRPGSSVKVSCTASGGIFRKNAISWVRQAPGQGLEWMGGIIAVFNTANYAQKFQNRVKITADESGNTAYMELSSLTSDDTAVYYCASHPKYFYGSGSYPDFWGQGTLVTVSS VL: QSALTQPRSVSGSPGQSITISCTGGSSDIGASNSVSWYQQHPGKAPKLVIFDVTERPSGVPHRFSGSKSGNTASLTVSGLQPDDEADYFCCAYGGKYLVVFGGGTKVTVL is 49
